SYSTEM UNDER TEST: T1, recombinant DcR3 protein (human DcR3 residues 33-300 linked to the N-terminal of rabbit Fc) (human, UniProt O95407 33-300)
T1 construct: range 33-300; Expressed in Expi293F, purified on protein A; not shown: rabbit Fc
T1 sequence (looked up): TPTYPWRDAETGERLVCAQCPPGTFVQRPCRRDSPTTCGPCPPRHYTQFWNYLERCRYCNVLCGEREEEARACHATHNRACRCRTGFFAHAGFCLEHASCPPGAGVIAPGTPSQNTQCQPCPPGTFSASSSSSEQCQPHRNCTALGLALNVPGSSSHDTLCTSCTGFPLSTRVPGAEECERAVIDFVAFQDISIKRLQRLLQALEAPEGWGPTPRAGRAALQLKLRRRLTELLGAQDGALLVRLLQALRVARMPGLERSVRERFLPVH
ASSAY DETAILS: ELISA on coated DcR3-rabbit Fc
Description: To test whether the muteins can bind to DcR3, the recombinant DcR3 protein was generated by linking human DcR3 residues 33-300 to the N-terminal of rabbit Fc. […] The plates were read at 450 nm on a SpectraMax M5 microplate reader (Molecule Devices). The ELISA results were analyzed using GraphPad Prism 9.0 software and the EC50s (half maximal effective concentration) were summarized in Table 5-2.
# met = EC50 below 0.3 nM (exclusive); not met = EC50 at/above 0.3 nM

BINDER	CLASSIFICATION
LIGHT-52 (ligand, Printed mutations: L220S; Soluble protein carries an N-terminal His tag) DGPAGSWEQLIQERRSHEVNPAAHLTGANSSLTGSGGPLLWETQLGLAFLRGLSYHDGALVVTKAGYYYIYSKVQLGGVGCPLGLASTITHGLYKRTPRYPEELELLVSQQSPCGRATSSSRVWWDSSFLGGVVHLEAGEKVVVRVSDERLVRLRDGTRSYFGAFMV	met
LIGHT-86 (ligand, Printed mutations: G150R, S160R, L220S; Soluble protein carries an N-terminal His tag) DGPAGSWEQLIQERRSHEVNPAAHLTGANSSLTGSGGPLLWETQLGLAFLRGLSYHDGALVVTKAGYYYIYSKVQLRGVGCPLGLARTITHGLYKRTPRYPEELELLVSQQSPCGRATSSSRVWWDSSFLGGVVHLEAGEKVVVRVSDERLVRLRDGTRSYFGAFMV	not met
LIGHT (74-240) (ligand, Soluble protein carries an N-terminal His tag; also called wild-type human LIGHT; LIGHT (74-240) (wt)) DGPAGSWEQLIQERRSHEVNPAAHLTGANSSLTGSGGPLLWETQLGLAFLRGLSYHDGALVVTKAGYYYIYSKVQLGGVGCPLGLASTITHGLYKRTPRYPEELELLVSQQSPCGRATSSSRVWWDSSFLGGVVHLEAGEKVVVRVLDERLVRLRDGTRSYFGAFMV	met
LIGHT-90 (ligand, Printed mutations: S160G, T161G, L220T, E222S; Soluble protein carries an N-terminal His tag) DGPAGSWEQLIQERRSHEVNPAAHLTGANSSLTGSGGPLLWETQLGLAFLRGLSYHDGALVVTKAGYYYIYSKVQLGGVGCPLGLAGGITHGLYKRTPRYPEELELLVSQQSPCGRATSSSRVWWDSSFLGGVVHLEAGEKVVVRVTDSRLVRLRDGTRSYFGAFMV	not met
LIGHT-60 (ligand, Printed mutations: S160G, T161G, L220S, E222S; Soluble protein carries an N-terminal His tag) DGPAGSWEQLIQERRSHEVNPAAHLTGANSSLTGSGGPLLWETQLGLAFLRGLSYHDGALVVTKAGYYYIYSKVQLGGVGCPLGLAGGITHGLYKRTPRYPEELELLVSQQSPCGRATSSSRVWWDSSFLGGVVHLEAGEKVVVRVSDSRLVRLRDGTRSYFGAFMV	not met
LIGHT-58 (ligand, Printed mutations: S160G, T161G, L220S; Soluble protein carries an N-terminal His tag) DGPAGSWEQLIQERRSHEVNPAAHLTGANSSLTGSGGPLLWETQLGLAFLRGLSYHDGALVVTKAGYYYIYSKVQLGGVGCPLGLAGGITHGLYKRTPRYPEELELLVSQQSPCGRATSSSRVWWDSSFLGGVVHLEAGEKVVVRVSDERLVRLRDGTRSYFGAFMV	met
LIGHT-61 (ligand, Printed mutations: S160G, T161P, L220S, E222S; Soluble protein carries an N-terminal His tag) DGPAGSWEQLIQERRSHEVNPAAHLTGANSSLTGSGGPLLWETQLGLAFLRGLSYHDGALVVTKAGYYYIYSKVQLGGVGCPLGLAGPITHGLYKRTPRYPEELELLVSQQSPCGRATSSSRVWWDSSFLGGVVHLEAGEKVVVRVSDSRLVRLRDGTRSYFGAFMV	met
